# Tested on: PCA (Passive Cutaneous Anaphylaxis) reaction
# TEST DESCRIPTION: Anti-allergic effect: PCA (Passive Cutaneous Anaphylaxis) reaction in rats
# Format: in vivo, Wister-strain male rats
# COND: Rattus norvegicus, oral, 1 hour before antigen challenge, dye leakage at 620 nm
Would you mind telling me the reported inhibition in vivo at 20 mg/kg of each entry?
Answers are plain numbers, in %.

Consider the worked cases shown below.
Cn1c(=O)c2c(N)ccnc2n(C)c1=O :: 68.7
Cn1c(=O)c2ccc(N)nc2n(C)c1=O :: 68.7
Cn1c(=O)c2cc(N)cnc2n(C)c1=O :: 56.2
CCn1c(=O)c2c(NC)ccnc2n(CC)c1=O :: 76.4
CC(C)Nc1ccnc2c1c(=O)n(C)c(=O)n2C :: 86.6
C=CCNc1ccnc2c1c(=O)n(C)c(=O)n2C :: 67.9

Please supply inhibition in vivo at 20 mg/kg for each of the following items, keeping them in order.
1. CCn1c(=O)c2c(N)ccnc2n(CC)c1=O
2. Cn1c(=O)c2[nH]cnc2n(C)c1=O [Theophylline, reference compound]
3. Cn1c(=O)c2cccnc2n(C)c1=O
4. Cn1c(=O)c2c(O)ccnc2n(C)c1=O
5. Cn1c(=O)c2c(NO)ccnc2n(C)c1=O
6. CNc1ccnc2c1c(=O)n(C)c(=O)n2C

79.2
57.9
51.2
49.9
74
73.7

---

Would you mind telling me the reported LD50 at 336 h of each entry?
# TEST DESCRIPTION: Acute toxicity test (oral, LD50)
# COND: mouse, in vivo
One number for each entry, in mg/kg.

Sample answers from the record:
CNc1ccnc2c1c(=O)n(C)c(=O)n2C :: 1050
Cn1c(=O)c2c(N)ccnc2n(C)c1=O :: 850

Please find the next compound below.
# LD50 at 336 h lookup, item `CC(C)Nc1ccnc2c1c(=O)n(C)c(=O)n2C`
850

---

# TEST DESCRIPTION: Acute toxicity test (oral, LD50)
# COND: mouse, in vivo
For each entry below, report its LD50 at 336 h value.

Worked set:
C=CCNc1ccnc2c1c(=O)n(C)c(=O)n2C [Compound 9] :: > 1000 mg/kg
Cn1c(=O)c2c(NO)ccnc2n(C)c1=O [Compound 11] :: > 1000 mg/kg
CCn1c(=O)c2c(N)ccnc2n(CC)c1=O [Compound 5] :: > 1000 mg/kg

Would you kindly look at the next entry?
I have this compound here, Cn1c(=O)c2ccc(N)nc2n(C)c1=O [Compound 15] , and I need its recorded LD50 at 336 h.
> 1200 mg/kg
